Biological target: T1, integrin αVβ5 (UniProt P06756 31-992; P18084 24-719)
T1 construct: Coated on the ELISA plate
T1 sequence (P06756 31-992, chain 1 of 2): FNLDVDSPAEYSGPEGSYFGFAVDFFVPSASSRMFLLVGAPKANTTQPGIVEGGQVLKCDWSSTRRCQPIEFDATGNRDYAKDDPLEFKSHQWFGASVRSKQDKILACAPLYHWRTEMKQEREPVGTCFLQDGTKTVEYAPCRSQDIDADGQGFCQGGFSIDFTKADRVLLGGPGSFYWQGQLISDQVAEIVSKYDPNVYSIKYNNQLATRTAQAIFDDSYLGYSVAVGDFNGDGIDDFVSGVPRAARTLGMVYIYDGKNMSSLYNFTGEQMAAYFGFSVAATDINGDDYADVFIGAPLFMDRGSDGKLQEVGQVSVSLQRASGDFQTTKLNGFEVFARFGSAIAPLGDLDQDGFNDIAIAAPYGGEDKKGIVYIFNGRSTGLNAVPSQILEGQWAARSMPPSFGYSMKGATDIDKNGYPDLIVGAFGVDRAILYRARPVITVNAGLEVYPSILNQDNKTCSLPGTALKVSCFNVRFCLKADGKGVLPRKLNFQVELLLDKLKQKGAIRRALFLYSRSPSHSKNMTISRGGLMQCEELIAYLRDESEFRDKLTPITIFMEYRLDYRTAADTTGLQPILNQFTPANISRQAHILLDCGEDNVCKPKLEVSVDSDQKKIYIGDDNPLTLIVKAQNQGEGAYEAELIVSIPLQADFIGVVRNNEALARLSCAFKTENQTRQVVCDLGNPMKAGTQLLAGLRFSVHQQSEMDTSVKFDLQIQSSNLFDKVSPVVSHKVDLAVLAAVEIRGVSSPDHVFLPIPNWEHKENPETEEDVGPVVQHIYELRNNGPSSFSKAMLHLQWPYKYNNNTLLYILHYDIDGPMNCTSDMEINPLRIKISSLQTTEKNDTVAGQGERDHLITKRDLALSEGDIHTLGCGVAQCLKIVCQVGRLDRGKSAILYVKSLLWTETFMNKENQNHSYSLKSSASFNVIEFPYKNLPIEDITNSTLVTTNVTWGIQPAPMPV
T1 sequence (P18084 24-719, chain 2 of 2): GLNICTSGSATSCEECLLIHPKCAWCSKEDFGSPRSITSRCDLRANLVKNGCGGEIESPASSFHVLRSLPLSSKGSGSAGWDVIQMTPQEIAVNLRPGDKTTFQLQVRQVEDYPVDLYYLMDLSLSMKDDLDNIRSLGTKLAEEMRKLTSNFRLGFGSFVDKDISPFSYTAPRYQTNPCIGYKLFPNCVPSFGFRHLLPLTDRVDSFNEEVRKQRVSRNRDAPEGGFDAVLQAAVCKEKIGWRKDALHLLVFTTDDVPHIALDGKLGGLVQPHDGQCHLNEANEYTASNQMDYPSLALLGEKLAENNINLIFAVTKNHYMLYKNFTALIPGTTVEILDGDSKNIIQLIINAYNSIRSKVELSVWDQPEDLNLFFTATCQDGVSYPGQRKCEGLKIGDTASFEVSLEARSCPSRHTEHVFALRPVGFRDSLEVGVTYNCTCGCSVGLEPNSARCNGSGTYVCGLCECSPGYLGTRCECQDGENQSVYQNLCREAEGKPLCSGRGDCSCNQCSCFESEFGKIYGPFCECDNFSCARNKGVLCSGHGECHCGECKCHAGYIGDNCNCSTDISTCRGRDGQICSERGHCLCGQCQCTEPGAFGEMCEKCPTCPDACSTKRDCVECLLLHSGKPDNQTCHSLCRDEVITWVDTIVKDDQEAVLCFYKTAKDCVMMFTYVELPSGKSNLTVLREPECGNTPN
Experiment: ELISA, integrin coated, anti-MICA-HRP
propertyName: signal

Task: Determine from records and report signal for soluble MICA generated by pKK38 (loop 3.3 in loop 1) (designed binder) HHHHHHEPHSLRYNLTVLSWDGSVQSGFLTEVHLDGQPFLRCDRQKCRAKPQGQWAEDVLGNKTWDRETRDLTGNGKDLRMTLAHIKDQKEGLHSLQEIRVCEIHEDNSTRSSQHFYYDGELFLSQNLETEEWTMPQSSRAQTLAMNVRNFLKEDAMKTKTHYHAMHADCLQELRRYLKSGVVLRRTVPPMVNVTRVPRGDSDLTVTCRASGFYPWNITLSWRQDGVSLSHDTQQWGDVLPDGNGTYQTWVATRICQGEEQRFTCYMEHSGNHSTHPVPSGK
Output: 0.291 OD
